Give measured Remaining amount % at 60 min for each item. Keep answers brief.
METHOD: In vitro liver microsomal stability assay, human
Assay type: in vitro ADME
MEASUREMENT_SETUP: Human liver microsomes 0.5 mg/mL, NADPH
Lab book: enter the figure in %, no units written.

Which value of Remaining amount % at 60 min has been reported for C[C@@]1(O)CC[C@H]2[C@H](CC[C@@H]3[C@@H]2CC[C@]2(C)[C@@H](C(=O)Cn4cnn(-c5cc(F)cc(F)c5)c4=O)CC[C@@H]32)C1 [Compound 28] in the records?
61.6

// same read-out, input: C[C@@]1(O)CC[C@H]2[C@H](CC[C@@H]3[C@@H]2CC[C@]2(C)[C@@H](C(=O)Cn4cnn(C5CCCC5)c4=O)CC[C@@H]32)C1 [Compound 29]
45.8

Now consider C[C@@]1(O)CC[C@H]2[C@H](CC[C@@H]3[C@@H]2CC[C@]2(C)[C@@H](C(=O)Cn4cnn(-c5ccnc(F)c5)c4=O)CC[C@@H]32)C1 [Compound 21] and answer again.
47.9

---

METHOD: In vitro liver microsomal stability assay, human
Type: in vitro ADME
MEASUREMENT_SETUP: Human liver microsomes
I'd appreciate it if you marked entries True when T1/2 is lower than 30 min and False when it is not.

For COc1ccc(-n2ncn(CC(=O)[C@H]3CC[C@H]4[C@@H]5CC[C@@H]6C[C@](C)(O)CC[C@@H]6[C@H]5CC[C@]34C)c2=O)cn1 [Compound 17] , is the recorded T1/2 below the cut-off of 30 min?
False

Subsequent entry: C[C@@]1(O)CC[C@H]2[C@H](CC[C@@H]3[C@@H]2CC[C@]2(C)[C@@H](C(=O)Cn4cnn(-c5cccnc5)c4=O)CC[C@@H]32)C1 [Compound 2]
True

How about C[C@@]1(O)CC[C@H]2[C@H](CC[C@@H]3[C@@H]2CC[C@]2(C)[C@@H](C(=O)Cn4cnn(-c5ccnc(OCC(F)(F)F)c5)c4=O)CC[C@@H]32)C1 [Compound 39] ?
False

Next up: C[C@@]1(O)CC[C@H]2[C@H](CC[C@@H]3[C@@H]2CC[C@]2(C)[C@@H](C(=O)Cn4ncn(-c5ccc(F)cc5)c4=O)CC[C@@H]32)C1 [Compound 9]
False

Quick one: C[C@@]1(O)CC[C@H]2[C@H](CC[C@@H]3[C@@H]2CC[C@]2(C)[C@@H](C(=O)Cn4cnn(-c5cc(Cl)ccn5)c4=O)CC[C@@H]32)C1 [Compound 26]
False

Also, C[C@@]1(O)CC[C@H]2[C@H](CC[C@@H]3[C@@H]2CC[C@]2(C)[C@@H](C(=O)Cn4cnn(-c5cccc(C(N)=O)c5)c4=O)CC[C@@H]32)C1 [Compound 19] please.
True

---

METHOD: Pharmacokinetic study in SD rats (plasma and brain)
Assay type: in vivo
MEASUREMENT_SETUP: male, rat, plasma, po, 24.4 umol/kg, IG 24.4 μmol/kg
OBSERVED_PROPERTY: Tmax (h)
Give just the numeric value; h need not be written.

Please look up its Tmax: C[C@@]1(O)CC[C@H]2[C@H](CC[C@@H]3[C@@H]2CC[C@]2(C)[C@@H](C(=O)Cn4cnn(-c5cc(F)nc(F)c5)c4=O)CC[C@@H]32)C1
1.67

---

METHOD: In vitro liver microsomal stability assay, rat
Type: in vitro ADME
MEASUREMENT_SETUP: Rat liver microsomes
Field: label. Allowed values: 1 (CLint scaled at 1 µM < 8 L/h/kg) or 0 (CLint scaled at 1 µM >= 8 L/h/kg).

Just wondering, is CLint scaled at 1 µM of Cc1cc(-n2ncn(CC(=O)[C@H]3CC[C@H]4[C@@H]5CC[C@@H]6C[C@](C)(O)CC[C@@H]6[C@H]5CC[C@]34C)c2=O)ccn1 below 8 L/h/kg?
1

C[C@@]1(O)CC[C@H]2[C@H](CC[C@@H]3[C@@H]2CC[C@]2(C)[C@@H](C(=O)Cn4cnn(-c5cccc(F)c5)c4=O)CC[C@@H]32)C1 , same question.
1

Proceed to C[C@@]1(O)CC[C@H]2[C@H](CC[C@@H]3[C@@H]2CC[C@]2(C)[C@@H](C(=O)Cn4cnn(-c5ccccc5F)c4=O)CC[C@@H]32)C1
0

Entry to check: C[C@@]1(O)CC[C@H]2[C@H](CC[C@@H]3[C@@H]2CC[C@]2(C)[C@@H](C(=O)Cn4cnn(C5CCCCC5)c4=O)CC[C@@H]32)C1
0

Please answer likewise for C[C@@]1(O)CC[C@H]2[C@H](CC[C@@H]3[C@@H]2CC[C@]2(C)[C@@H](C(=O)Cn4cnn(-c5ccnc(F)c5)c4=O)CC[C@@H]32)C1
1

Also need CC(C)(C)n1ncn(CC(=O)[C@H]2CC[C@H]3[C@@H]4CC[C@@H]5C[C@](C)(O)CC[C@@H]5[C@H]4CC[C@]23C)c1=O , thanks.
0
